# Tested on: Staphylococcus aureus
# Experimental protocol: Antibacterial activity against methicillin-resistant Staphylococcus aureus clinical isolate DM21455 after 20 to 22 hrs by CLSI broth macro-dilution method
# Format: functional
Assay metric: MIC99 (µg/mL)
Give bare numbers, in µg/mL.

Lab note: need MIC99 with Staphylococcus aureus for entry CN[C@H](CC(C)C)C(=O)N[C@H]1C(=O)N[C@@H](CC(N)=O)C(=O)N[C@H]2C(=O)N[C@H]3C(=O)N[C@H](C(=O)N[C@H](C(=O)O)c4cc(O)cc(O)c4-c4cc3ccc4O)[C@H](O)c3ccc(c(Cl)c3)Oc3cc2cc(c3O[C@@H]2O[C@H](CO)[C@@H](O)[C@H](O)[C@H]2O[C@H]2C[C@](C)(N)[C@H](O)[C@H](C)O2)Oc2ccc(cc2Cl)[C@H]1O [VANCOMYCIN] , please look it up.
0.78

* * *

# Experimental protocol: Partition coefficient, log P of the compound by HPLC analysis
# Format: physicochemical
# Measurement parameters: octanol/water; read-out: logP
Can you tell me logP for the items I'm about to list?
Give bare numbers.

Field: example entries. Status: answers known.
[[record]]
compound = "COc1c(OCCCCN2CCOCC2)cc2oc3cc(OCCCCN4CCOCC4)c(CC=C(C)C)c(O)c3c(=O)c2c1CC=C(C)C"
meas_value = 5.42

[[record]]
compound = "CCN(CC)CCCCCOc1cc2oc3cc(OCCCCCN(CC)CC)c(OC)c(CC=C(C)C)c3c(=O)c2c(O)c1CC=C(C)C"
meas_value = 7.55


For each listed entry, give its logP.
1. COc1c(OCCCCN2CCCC2)cc2oc3cc(OCCCCN4CCCC4)c(CC=C(C)C)c(O)c3c(=O)c2c1CC=C(C)C
2. COc1c(OCCCCN2CCCCC2)cc2oc3cc(OCCCCN4CCCCC4)c(CC=C(C)C)c(O)c3c(=O)c2c1CC=C(C)C
3. CCN(CC)CCCOc1cc2oc3cc(OCCCN(CC)CC)c(OC)c(CC=C(C)C)c3c(=O)c2c(O)c1CC=C(C)C
4. CCN(CC)CCCCCCOc1cc2oc3cc(OCCCCCCN(CC)CC)c(OC)c(CC=C(C)C)c3c(=O)c2c(O)c1CC=C(C)C
5. CCN(CC)CCCCOc1cc2oc3cc(OCCCCN(CC)CC)c(OC)c(CC=C(C)C)c3c(=O)c2c(O)c1CC=C(C)C
6. COc1c(O)cc2oc3cc(O)c(CC=C(C)C)c(O)c3c(=O)c2c1CC=C(C)C

[6.63, 6.93, 6.27, 8.39, 6.72, 6.75]

* * *

# Experimental protocol: Hemolytic activity against rabbit erythrocytes after 60 mins by spectrophotometric analysis
# Type: ADME, cell-based, Oryctolagus cuniculus, Erythrocyte
Assay metric: HC50 at 1 h

Would you please look over these solved cases?
[[record]]
compound = "COc1c(OCCCCN2CCOCC2)cc2oc3cc(OCCCCN4CCOCC4)c(CC=C(C)C)c(O)c3c(=O)c2c1CC=C(C)C"
meas_value = "> 200 µM"

[[record]]
compound = "CCN(CC)CCCCCCOc1cc2oc3cc(OCCCCCCN(CC)CC)c(OC)c(CC=C(C)C)c3c(=O)c2c(O)c1CC=C(C)C"
meas_value = "26.5 µM"


Consider the additional compound presented here.
Sample COc1c(OCCCCBr)cc2oc3cc(OCCCCBr)c(CC=C(C)C)c(O)c3c(=O)c2c1CC=C(C)C — what was its HC50 at 1 h?
> 200 µM

* * *

# Experimental protocol: Selectivity ratio of HC50 for rabbit erythrocyte to MIC99 for Staphylococcus aureus ATCC 29213
# Format: functional
Assay metric: Selectivity ratio
Numbers only.

Known Selectivity ratio results, listed for orientation:
[[record]]
compound = "COc1c(OCCCCN2CCCC2)cc2oc3cc(OCCCCN4CCCC4)c(CC=C(C)C)c(O)c3c(=O)c2c1CC=C(C)C"
meas_value = 16

[[record]]
compound = "CCN(CC)CCCCOc1cc2oc3cc(OCCCCN(CC)CC)c(OC)c(CC=C(C)C)c3c(=O)c2c(O)c1CC=C(C)C"
meas_value = 50.3

[[record]]
compound = "CCN(CC)CCCCCCOc1cc2oc3cc(OCCCCCCN(CC)CC)c(OC)c(CC=C(C)C)c3c(=O)c2c(O)c1CC=C(C)C"
meas_value = 17

[[record]]
compound = "COc1c(OCCCCN2CCCCC2)cc2oc3cc(OCCCCN4CCCCC4)c(CC=C(C)C)c(O)c3c(=O)c2c1CC=C(C)C"
meas_value = 24.7

[[record]]
compound = "COc1c(O)cc2oc3cc(O)c(CC=C(C)C)c(O)c3c(=O)c2c1CC=C(C)C"
meas_value = 5.77

[[record]]
compound = "CCN(CC)CCCOc1cc2oc3cc(OCCCN(CC)CC)c(OC)c(CC=C(C)C)c3c(=O)c2c(O)c1CC=C(C)C"
meas_value = 20.9


Consider the record given below.
So what does the record say about Selectivity ratio for CCN(CC)CCCCCOc1cc2oc3cc(OCCCCCN(CC)CC)c(OC)c(CC=C(C)C)c3c(=O)c2c(O)c1CC=C(C)C ?
9

* * *

# Experimental protocol: Dissociation constant, pKa of the compound
# Format: physicochemical
What pKa was measured for each of the following?
Answers are plain numbers.

[[record]]
compound = "CCN(CC)CCCCCOc1cc2oc3cc(OCCCCCN(CC)CC)c(OC)c(CC=C(C)C)c3c(=O)c2c(O)c1CC=C(C)C"
meas_value = 11

[[record]]
compound = "COc1c(OCCCCN2CCCCC2)cc2oc3cc(OCCCCN4CCCCC4)c(CC=C(C)C)c(O)c3c(=O)c2c1CC=C(C)C"
meas_value = 11.2


Now look at this one.
For the compound shown here, COc1c(OCCCCn2cncn2)cc2oc3cc(OCCCCn4cncn4)c(CC=C(C)C)c(O)c3c(=O)c2c1CC=C(C)C , give the reported pKa.
2.2

* * *

Task for the reader: assign each of the following molecules its reported MIC99.
# Test system: Staphylococcus aureus
# Experimental protocol: Antibacterial activity against methicillin-resistant Staphylococcus aureus clinical isolate DM21455 after 20 to 22 hrs by CLSI broth macro-dilution method
# Type: functional

Example entries begin here.
[[record]]
compound = "COc1c(OCCCCn2cccn2)cc2oc3cc(OCCCCn4cccn4)c(CC=C(C)C)c(O)c3c(=O)c2c1CC=C(C)C"
meas_value = "> 200 µg/mL"

[[record]]
compound = "COc1c(OCCCCN2CCOCC2)cc2oc3cc(OCCCCN4CCOCC4)c(CC=C(C)C)c(O)c3c(=O)c2c1CC=C(C)C"
meas_value = "> 200 µg/mL"


Which MIC99 is reported for this molecule? COc1c(OCCCCBr)cc2oc3cc(OCCCCBr)c(CC=C(C)C)c(O)c3c(=O)c2c1CC=C(C)C
> 200 µg/mL
